Below, each entry is listed with its recorded Selectivity Index (SI) values MOLT-3.
system: MOLT-3 (T cell acute lymphoblastic leukemia); assay: Cytotoxic activity assay (XTT); type: cell-based, human; settings: SI = IC50 normal cell (MRC-5)/ IC50 cancer cell
experimental.readout: Selectivity Index (SI) values MOLT-3

INSERT INTO measurements (compound, value) VALUES
  ('C=C1CCC2C(C)(C)CCC[C@]2(C)[C@H]1CC/C(C)=C/C=O (stereo partly shown)', 3.3),
  ('C=C1CC[C@H]2C(C)(C)CCC[C@]2(C)[C@H]1CC/C(C)=C/C(=O)NN', 5.0),
  ('C=C1CC[C@H]2C(C)(C)CCC[C@]2(C)[C@H]1CC/C(C)=C/C(=O)N1CCCCC1', 1.8),
  ('C=C1CC[C@H]2C(C)(C)CCC[C@]2(C)[C@H]1CC/C(C)=C/C(=O)Nc1ccccc1', 5.1);

* * *

tested on: MDA-MB-231 (triple-negative breast cancer); assay: Cytotoxic activity assay (MTT); assay type: cell-based, human; settings: SI = IC50 normal cell (MRC-5)/ IC50 cancer cell
Each entry below lists one item and its recorded Selectivity Index (SI) values MDA-MB-231 value.
experimental.readout: Selectivity Index (SI) values MDA-MB-231

INSERT INTO assay_data (compound, value) VALUES
  ('C=C1CC[C@H]2C(C)(C)CCC[C@]2(C)[C@H]1CC/C(C)=C/C(=O)NCC(=O)OC [Compound 4q]', 1.4),
  ('C=C1CC[C@H]2C(C)(C)CCC[C@]2(C)[C@H]1CC/C(C)=C/C(=O)NOC1CCCCO1 (stereo partly shown) [Compound 4l]', 2.9),
  ('COc1cccc2c1C(=O)c1c(O)c3c(c(O)c1C2=O)C[C@@](O)(C(=O)CO)C[C@@H]3O[C@H]1C[C@H](N)[C@H](O)[C@H](C)O1 [DOX, doxorubicin, reference compound]', 0.3),
  ('C=C1CC[C@H]2C(C)(C)CCC[C@]2(C)[C@H]1CC/C(C)=C/C(=O)N1CCCCC1 [Compound 4n]', 1.1),
  ('C=C1CC[C@H]2C(C)(C)CCC[C@]2(C)[C@H]1CC/C(C)=C/C(=O)N(C)O [Compound 4p]', 2.8),
  ('C=C1CCC2C(C)(C)CCCC2(C)C1CCC(C)=CCO (stereo not shown) [Compound 2, anticopalol]', 1.7),
  ('C=C1CC[C@H]2C(C)(C)CCC[C@]2(C)[C@H]1CC/C(C)=C/C(=O)NO [Compound 4j]', 1.0);

* * *

Quick reference for Selectivity Index (SI) values HeLa among some molecules
tested on: HeLa (cervical carcinoma); assay: Cytotoxic activity assay (MTT); type: cell-based, human; conditions: SI = IC50 normal cell (MRC-5)/ IC50 cancer cell
experimental.readout: Selectivity Index (SI) values HeLa

INSERT INTO results (molecule, experimental_readout, value) VALUES
  ('C=C1CC[C@H]2C(C)(C)CCC[C@]2(C)[C@H]1CC/C(C)=C/C(=O)NCC(=O)OC', 'Selectivity Index (SI) values HeLa', 1.7),
  ('C=C1CC[C@H]2C(C)(C)CCC[C@]2(C)[C@H]1CC/C(C)=C/C(=O)NCC(=O)O', 'Selectivity Index (SI) values HeLa', 1.0),
  ('C=C1CC[C@H]2C(C)(C)CCC[C@]2(C)[C@H]1CC/C(C)=C/C(=O)NO', 'Selectivity Index (SI) values HeLa', 1.0),
  ('C=C1CCC2C(C)(C)CCCC2(C)C1CCC(C)=CC(=O)O (stereo not shown) [Compound 1, anticopalic acid]', 'Selectivity Index (SI) values HeLa', 1.1),
  ('C=C1CC[C@H]2C(C)(C)CCC[C@]2(C)[C@H]1CC/C(C)=C/C(=O)N1CCCCC1', 'Selectivity Index (SI) values HeLa', 1.0),
  ('C=C1CC[C@H]2C(C)(C)CCC[C@]2(C)[C@H]1CC/C(C)=C/C(=O)NCc1ccccc1', 'Selectivity Index (SI) values HeLa', 1.0),
  ('C#CCNC(=O)/C=C(\C)CC[C@H]1C(=C)CC[C@H]2C(C)(C)CCC[C@]12C', 'Selectivity Index (SI) values HeLa', 1.7),
  ('C=C1CC[C@H]2C(C)(C)CCC[C@]2(C)[C@H]1CC/C(C)=C/C(=O)N(C)OC', 'Selectivity Index (SI) values HeLa', 0.9),
  ('C=C1CC[C@H]2C(C)(C)CCC[C@]2(C)[C@H]1CC/C(C)=C/C(=O)NOC1CCCCO1 (stereo partly shown)', 'Selectivity Index (SI) values HeLa', 1.5),
  ('C=C1CC[C@H]2C(C)(C)CCC[C@]2(C)[C@H]1CC/C(C)=C/C(=O)NCCc1c[nH]c2ccccc12', 'Selectivity Index (SI) values HeLa', 2.3),
  ('COc1cccc2c1C(=O)c1c(O)c3c(c(O)c1C2=O)C[C@@](O)(C(=O)CO)C[C@@H]3O[C@H]1C[C@H](N)[C@H](O)[C@H](C)O1 [DOX, doxorubicin, reference compound]', 'Selectivity Index (SI) values HeLa', 1.6),
  ('C=C1CCC2C(C)(C)CCCC2(C)C1CCC(C)=CCO (stereo not shown) [Compound 2, anticopalol]', 'Selectivity Index (SI) values HeLa', 1.4),
  ('C=CCNC(=O)/C=C(\C)CC[C@H]1C(=C)CC[C@H]2C(C)(C)CCC[C@]12C', 'Selectivity Index (SI) values HeLa', 1.8),
  ('C=C1CC[C@H]2C(C)(C)CCC[C@]2(C)[C@H]1CC/C(C)=C/C(=O)N(C)O', 'Selectivity Index (SI) values HeLa', 2.1),
  ('C=C1CCC2C(C)(C)CCCC2(C)C1CCC(C)=CC(=O)NCC(=O)OCC (stereo not shown)', 'Selectivity Index (SI) values HeLa', 1.7),
  ('C=C1CCC2C(C)(C)CCC[C@]2(C)[C@H]1CC/C(C)=C/C=O (stereo partly shown)', 'Selectivity Index (SI) values HeLa', 1.6);
